Data credit: PubChem BioAssay

Target: Dihydroorotate dehydrogenase (quinone), mitochondrial (Plasmodium falciparum (isolate 3D7))
Test: PfDHODH enzyme inhibitors, primary screen, biochemical, C-terminal His tag, absorbance 600 nm (AID 1175);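 note: recombinant parasite enzyme with a five histidine tag at its C terminus; test concentration not given here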
Settings: DCIP absorbance 600 nm, higher = more signal, called active from +8 up or from −8 down
Listing of recorded composite z-score by entry.
Output: the number by itself.

Ask: Which composite z-score reading was recorded for the molecule COCCOC(=O)N1C(=O)[C@@]2(c3cc(C#CC4(O)CCCCCC4)ccc31)[C@H](c1ccccc1OCCO)N1[C@H](c3ccccc3)[C@H](c3ccccc3)OC(=O)[C@H]1[C@@H]2C(=O)N1CCCCCCC1 ?
Result: 0.0767

Ask: Request: CN(C)CCCCNC(=O)[C@H]1C[C@H]2C(=O)N[C@@H](Cc3ccccc3)C(=O)N2[C@H]1c1cccc(OCCO)c1
Result: 0.65

Ask: Request: COC(=O)[C@]1(CO)N=C(c2ccc(OCCCO)cc2)O[C@@H]1c1ccccc1CN=[N+]=[N-]
Result: 0.415

Ask: Request: C=C(CCCC)C(=O)CC[C@H](OC(=O)c1cccnc1)c1ccc(CO)o1
Result: -0.826

Ask: Request: COC(=O)c1c(CC[C@@H](CO)NC(=O)N[C@@H](Cc2ccccc2)Cn2cc(-c3cncn3C)nn2)oc(C(C)=O)c1C(=O)OC
Result: -2.95

Ask: Request: C=CCC(OC(C)=O)[C@@H]1[C@@H](N(Cc2ccc(-c3cccc(C(F)(F)F)c3)o2)C(=O)Cc2ccc(F)cc2)c2cc(OCCCO)ccc2N1C(=O)c1ccc2ccccc2c1 (stereo partly drawn)
Result: -1.26

Ask: Request: CC(C)N1CC=CC23O[C@@H]4C=CCCOC(=O)C4[C@H]2C(=O)N(CCCCCO)[C@@H]3C1=O (stereo partly drawn)
Result: -0.727

Ask: Request: COCC1=C([C@H](O)CCc2ccccc2)[C@H](CO)n2c(=O)n(-c3ccccc3)c(=O)n2C1
Result: -0.855
